System: Klebsiella oxytoca
Assay: Antibacterial activity against Klebsiella oxytoca isolated from patient with diabetic foot infection after 18 to 24 hrs by broth microdilution method
Format: functional
Measured MIC50 of individual entries
Give just the number in µg/mL; leave the unit off.

{"COMPOUND": "C[C@@H](O)[C@H]1C(=O)N2C(C(=O)O)=C(S[C@@H]3CN[C@H](C(=O)N(C)C)C3)[C@H](C)[C@H]12", "MIC50, µg/mL": 0.03}

Please give the measured MIC50 for this compound: C[C@@H](O)[C@H]1C(=O)N2C(C(=O)O)=C(SCCNC=N)C[C@H]12 [IMIPENEM ANHYDROUS] 0.25

Fill in the blank: the reported MIC50 of C[C@@H](O)[C@H]1C(=O)N2C(C(=O)O)=C(S[C@@H]3CN[C@H](CNS(N)(=O)=O)C3)[C@H](C)[C@H]12 is ____. 0.06

====

Listed below: MIC90 values for each entry.
Test system: Klebsiella aerogenes
Test: Antibacterial activity against Enterobacter aerogenes isolated from patient with diabetic foot infection after 18 to 24 hrs by broth microdilution method
Format: functional
# output: bare number, implied unit µg/mL

{"COMPOUND": "C[C@@H](O)[C@H]1C(=O)N2C(C(=O)O)=C(SCCNC=N)C[C@H]12 [IMIPENEM ANHYDROUS]", "OBSERVED PROPERTY": "MIC90", "MEASURED RESULT": 2}
{"COMPOUND": "C[C@@H](O)[C@H]1C(=O)N2C(C(=O)O)=C(S[C@@H]3CN[C@H](C(=O)N(C)C)C3)[C@H](C)[C@H]12 [MEROPENEM]", "OBSERVED PROPERTY": "MIC90", "MEASURED RESULT": 0.5}

Field: MIC90 (Klebsiella aerogenes). Entry: C[C@@H](O)[C@H]1C(=O)N2C(C(=O)O)=C(S[C@@H]3CN[C@H](CNS(N)(=O)=O)C3)[C@H](C)[C@H]12 [DORIPENEM] 0.25

# get_value(readout= MIC90, system= Klebsiella aerogenes) for C[C@@H](O)[C@H]1C(=O)N2C(C(=O)O)=C(S[C@@H]3CN[C@H](C(=O)Nc4cccc(C(=O)O)c4)C3)[C@H](C)[C@H]12 [ERTAPENEM] 0.5

====

System: Staphylococcus aureus
Assay: Antibacterial activity against methicillin-sensitive Staphylococcus aureus isolated from patient with diabetic foot infection after 18 to 24 hrs by broth microdilution method
Format: functional
OBSERVED PROPERTY: MIC50 (µg/mL)
Answer format: numeric, µg/mL implied, no suffix.

Illustrative cases are given below, each with its answer.
{"SMILES STR": "C[C@@H](O)[C@H]1C(=O)N2C(C(=O)O)=C(S[C@@H]3CN[C@H](CNS(N)(=O)=O)C3)[C@H](C)[C@H]12", "SYSTEM NAME": "Staphylococcus aureus", "MIC50 (µg/mL)": 0.03}
{"SMILES STR": "C[C@@H](O)[C@H]1C(=O)N2C(C(=O)O)=C(S[C@@H]3CN[C@H](C(=O)Nc4cccc(C(=O)O)c4)C3)[C@H](C)[C@H]12", "SYSTEM NAME": "Staphylococcus aureus", "MIC50 (µg/mL)": 0.125}
{"SMILES STR": "CCC[C@@H]1C[C@@H](C(=O)N[C@@H]([C@H]2O[C@H](SC)[C@H](O)[C@@H](O)[C@H]2O)[C@H](C)Cl)N(C)C1", "SYSTEM NAME": "Staphylococcus aureus", "MIC50 (µg/mL)": 0.125}

Now for another entry.
Request the reported MIC50 associated with C[C@@H](O)[C@H]1C(=O)N2C(C(=O)O)=C(S[C@@H]3CN[C@H](C(=O)N(C)C)C3)[C@H](C)[C@H]12 0.06
